Cited source: PubChem BioAssay (NCI)

# Tested on: HOP-62 NSCLC
# Assay procedure: NCI tumour cell line growth inhibition, 48 h
Respond with criterion met for TGI values of 50 µM and above, criterion not met for values below.

Molecule	Category
N/C(=N\N=C\c1ccc(C(F)(F)F)cc1)NO	criterion met
COc1ccc2c(c1)nc(C(=O)c1ccco1)c(C(F)(F)F)[n+]2[O-]	criterion met
CCCCCCCCCCCCCCC(O)C[N+](C)(CCO)CCO (stereo unspecified)	criterion not met
C=C(NC(=O)C(=C)NC(=O)c1csc(C2=NC3c4csc(n4)C4NC(=O)c5csc(n5)C(C(C)(O)C(C)O)NC(=O)C5CSC(=N5)/C(=C/C)NC(=O)C(C(C)O)NC(=O)c5csc(n5)C3(CC2)NC(=O)C(C)NC(=O)C(=C)NC(=O)C(C)NC(=O)C(C(C)CC)NC2C=Cc3c(C(C)O)cc(nc3C2O)C(=O)OC4C)n1)C(N)=O (stereo unspecified)	criterion met
COc1ccc(N=NC(=O)NC(CC(C)C)C(N)=O)cc1 (stereo unspecified)	criterion met

Query block: API: above_or_equal(metric=TGI, cutoff=50 µM) for item O=C1C(c2ccc(Br)cc2)=[N+]([O-])c2ccccc21
Result block: criterion met

Query block: API: above_or_equal(metric=TGI, cutoff=50 µM) for item O=C(CCCN1CCC(O)(c2ccc(Cl)cc2)CC1)c1ccc(F)cc1
Result block: criterion met

Query block: API: above_or_equal(metric=TGI, cutoff=50 µM) for item C=C(C)COC1CCCCO1 (stereo unspecified)
Result block: criterion met
